- Assay: qHTS of pediatric cancer cell lines to identify multiple opportunities for drug repurposing: Primary screen for SJ-GBM2 cells (AID 1347091)
- Test settings: SJ-GBM2 viability, CellTiter-Glo luminescence, 48 h; series mostly up to 46 µM
Results filed as inconclusive are left out. Active and inactive are the calls of the source. Calls come from the whole dose curve; as a rule, active = well fitted cell-killing curve with a large enough effect; inconclusive = small, poorly fitted or top-dose-only effect; inactive = no such curve, though single readings can be large or run the other way.
One label from this list, please: active, inactive

Input line: In this assay, the call recorded for COc1cc(NS(=O)(=O)c2ccc(N)cc2)ncn1 was what?
Output line: inactive

Input line: Repeat with CO[C@H]1C=CO[C@@]2(C)Oc3c(C)c(O)c4c(O)c(c(/C=N/N5CCN(C)CC5)c(O)c4c3C2=O)NC(=O)/C(C)=C\C=C[C@H](C)[C@H](O)[C@@H](C)[C@@H](O)[C@@H](C)[C@H](OC(C)=O)[C@@H]1C
Output line: inactive

Input line: Repeat with NC(=O)c1ccccc1O
Output line: inactive

Input line: Repeat with C[C@@]12C(=O)OC(=O)[C@]1(C)C1CCC2O1
Output line: active

Input line: Repeat with CN(CCCN1c2ccccc2CCc2ccccc21)CC(=O)c1ccc(Cl)cc1
Output line: inactive

Input line: Repeat with Cc1cc2c(OCC(CNC(C)(C)C)OC(=O)c3ccccc3)cccc2[nH]1 (stereo not given)
Output line: inactive

Input line: Repeat with O=C(O)C(Cc1cc(I)c(O)c(I)c1)c1ccccc1 (stereo not given)
Output line: inactive

Input line: Repeat with CCCCNC(=O)NS(=O)(=O)c1ccc(N)cc1
Output line: inactive

Input line: Repeat with CN1CCN(C2=Nc3cc(F)ccc3Cc3ccccc32)CC1
Output line: inactive

Input line: Repeat with CCC(CC)(CC(=O)Nc1cccc(/C=C/c2nc(C3CCC3)cs2)c1)C(=O)O
Output line: inactive

Just for reference, PubChem BioAssay (NCATS) is where these values come from.
